These measurements were taken from patent US20250019450A1.

# MEASURED_TARGET: T1, human IL-12RB1 overexpressed on 293T cells (Example 2) (human, UniProt P42701 24-662)
# T1 construct: whole, on cells
# PROTOCOL_NOTES: FACS, hybridoma supernatant, 293T
PROPERTY_MEASURED: Fold over parental 293T (fold)
Answer with a number only, understood to be in fold.

# annotated cases, reported Fold over parental 293T shown
85801_05G01 (antibody, V domains shown, also called 85801_05G01A) VH: QVQLVQSGAEVKKPGASAKVSCKASGYTFTDYYLHWVRQAPGQGLEWMGWINPNNGGTHYAQKFQGRVTMTRDTSISTAYMELSRLRSDDTAVYYCAREMGGTTAFDYWGQGTLVTVSS VL: DIQMTQSPSSLSASVGDRVTITCRASQGIGNYLAWFQQRPGKAPKSLIYAASSLQSGVPSKFSGSGSGTDFTLTISSLQPADFAIYYCQQYNIYPYTFGPGTRLEIK | 170
85801_02N03 (antibody, V domains shown, also called 85801_02N03A) VH: QVHLVQSGAEVKKPGASVKVSCEASGYTFTDYYIHWLRQAPGQGLEWMGWINPNSGGTHYAQKFQGRVTMTRDTSISTAYMELSRLSSDDTAVYYCAREGGWNYFSGMDVWGQGTTVTVSS VL: DIQLTQSPSFLSASVGDRVTITCRASQGISSYLAWYQQQPGKPPKLLIYAASTLHSGVPSRFSGSGSGTEFTLTISSLQPEDFATYYCQQLNRYPYTCGQGTKLEIK | 221

Any idea what Fold over parental 293T was measured for 85801_01D14 (antibody, V domains shown, also called 85801_01D14A) VH: EVQLVESGGGLVKPGGSLRLSCAASGFTFSNAWMNWVRQAPGKGLEWVGRIKSKTDGGTTDYAAPVKGRFTVSRDDPKNTLYLQMNSLKTEDTAVYYCTTDPGWEFDYWGQGILVTVSS VL: DIQMTQSPSSLSASVGDRVTITCQASQDISNFLNWYQQKPGKAPNLLIYDASDLETGVPSRFSGSGSGTDFTFTISSLQPEDIATYYCQQYDNLPLTFGGGTKVEIK ?
116
